Provide the recorded IC50 for the entries that follow.
- System: LoVo cells
- METHOD DESCRIPTION: MTT assay (mitochondrial activity), LoVo
- Format: cell-based
- APPLIED CONDITIONS: Homo sapiens
Give bare numbers, in µM.

> print(dat)
                                   compound  measured.metric  measured
1  COc1cccc2c1C(=O)c1c(O)c3c(c(O)c1C2=O)C[C@@](O)(C(=O)CO)C[C@@H]3O[C@H]1C[C@H](N)[C@H](O)[C@H](C)O1 [Doxorubicin]             IC50      10.2
2  Cc1c2ccncc2c(C)c2c1[nH]c1ccccc12 [Ellipticine]             IC50      3.27

Now look at this entry.
**Q:** What value of measured IC50 is listed for Cc1nccc2c(C)c3[nH]c4ccccc4c3cc12 [Olivacine, 1,5-dimethyl-6H-pyrido[4,3-b]carbazole] ?
**A:** 12.7

====

- System: CCRF/CEM cells
- METHOD DESCRIPTION: MTT assay (mitochondrial activity), CCRF/CEM
- Format: cell-based
- APPLIED CONDITIONS: Homo sapiens
MEASURED METRIC: IC50

For orientation, consider the following solved cases.
> print(dat)
                                   compound  measured
1  COc1cccc2c1C(=O)c1c(O)c3c(c(O)c1C2=O)C[C@@](O)(C(=O)CO)C[C@@H]3O[C@H]1C[C@H](N)[C@H](O)[C@H](C)O1   1.03 µM
2  Cc1nccc2c(C)c3[nH]c4ccccc4c3cc12 [Olivacine, 1,5-dimethyl-6H-pyrido[4,3-b]carbazole]     11 µM

**Q:** What value of measured IC50 is listed for Cc1c2ccncc2c(C)c2c1[nH]c1ccccc12 ?
**A:** 5.86 µM
